TESTED SYSTEM: C-C chemokine receptor type 2 (Homo sapiens, UniProt P41597)
Sequence (P41597 whole entry): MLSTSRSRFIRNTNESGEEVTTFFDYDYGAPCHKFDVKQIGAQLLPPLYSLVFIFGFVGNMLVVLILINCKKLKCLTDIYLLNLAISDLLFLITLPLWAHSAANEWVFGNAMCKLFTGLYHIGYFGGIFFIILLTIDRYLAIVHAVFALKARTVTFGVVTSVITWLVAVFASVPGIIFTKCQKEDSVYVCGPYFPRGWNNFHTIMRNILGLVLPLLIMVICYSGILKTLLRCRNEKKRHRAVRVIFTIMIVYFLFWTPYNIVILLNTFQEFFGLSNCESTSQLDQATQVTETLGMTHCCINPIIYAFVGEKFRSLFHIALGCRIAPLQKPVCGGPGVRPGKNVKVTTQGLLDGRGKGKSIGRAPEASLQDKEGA
METHOD: Antagonist activity at human CCR2 receptor expressed in human THP-1 cells assessed as inhibition of MCP1-induced Ca2+ flux by FLIPR analysis
Assay type: functional, cell-based
Hi there, I'd appreciate the recorded log10(IC50) for every entry that follows.
Reminder: these figures are log10 of reported IC50, in nM before transformation.

Query: Give the measured log10(IC50) of `O=C(Nc1ccc(Cl)c(Cl)c1)N1CCN(C[C@@H]2CCCN(CC3CC3)C2)CC1` .
Response: 2.21

Query: And the next one, O=C(Nc1ccc(Cl)c(Cl)c1)N1CCN(CC2CCCNC2)CC1 (racemic) ?
Response: 2.98

Query: And the next one, `O=C(Nc1ccc(Cl)c(Cl)c1)N1CCN(C[C@@H]2CCCN(CCCc3ccccc3)C2)CC1` ?
Response: 2.45

Query: And the next one, `O=C(Nc1cccc(Cl)c1)N1CCN(C[C@@H]2CCCN(C3CC3)C2)CC1` ?
Response: 2.31

Query: And the next one, `CCN1CCO[C@@H](CN2CCN(C(=O)Nc3ccc(Cl)c(Cl)c3)CC2)C1` ?
Response: 2.44

Query: And the next one, `O=C(Nc1ccc(C(F)(F)F)c(Cl)c1)N1CCN(C[C@@H]2CCCN(C3CC3)C2)CC1` ?
Response: 1.49

Query: And the next one, `O=C(Nc1ccc(Cl)c(Cl)c1)N1CCN(C[C@H]2CN(C3CC3)CCO2)CC1` ?
Response: 2.42

Query: And the next one, `O=C(Nc1ccc(Cl)c(Cl)c1)N1CCN(C[C@@H]2CCCN(C3CC3)C2)CC1` ?
Response: 1.81
